Molecular target: T1, FZD4 cysteine-rich domain (CRD), MYC-tagged and GPI-anchored on CHO cells (human, UniProt Q9ULV1 42-167, GPI anchor)
T1 construct: also called FZD4 CRD; CHO-myc-FZDGPI; not shown: MYC tag and GPI anchor signal
T1 sequence: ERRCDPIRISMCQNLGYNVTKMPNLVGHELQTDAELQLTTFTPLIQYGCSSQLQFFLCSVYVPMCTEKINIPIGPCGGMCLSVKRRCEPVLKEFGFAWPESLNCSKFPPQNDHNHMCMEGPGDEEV
Assay: immunofluorescence, CHO-CRD cells
VALUE KIND: binding result

Fab-2920 (Fab, V domains shown, Fab) VH: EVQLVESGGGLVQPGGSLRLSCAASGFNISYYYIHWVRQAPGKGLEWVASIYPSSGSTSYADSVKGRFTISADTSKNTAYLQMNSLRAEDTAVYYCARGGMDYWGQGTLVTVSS VL: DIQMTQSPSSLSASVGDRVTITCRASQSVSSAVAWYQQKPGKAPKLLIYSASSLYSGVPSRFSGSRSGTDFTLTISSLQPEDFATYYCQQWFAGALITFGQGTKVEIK = no binding
Fab-2908 (Fab, V domains shown, Fab; also called Fv-2908) VH: EVQLVESGGGLVQPGGSLRLSCAASGFNFSSSSIHWVRQAPGKGLEWVAYIYPSYSYTYYADSVKGRFTISADTSKNTAYLQMNSLRAEDTAVYYCARAYYGHFHAMDYWGQGTLVTVSS VL: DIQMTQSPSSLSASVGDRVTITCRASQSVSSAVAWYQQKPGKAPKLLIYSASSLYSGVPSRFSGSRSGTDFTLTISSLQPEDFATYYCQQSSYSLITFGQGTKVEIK = no binding

The values you see were collected from patent US20210253718A1.
